B1: LARP4 (parent)
chain: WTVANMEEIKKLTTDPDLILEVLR

- Variants of: B1
- Assay text: protein stability index of a GFP-peptide fusion (GPS, HEK-293T) (PSI 1-6); higher = more stable;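 further: lentivirally expressed fusions sorted by FACS into six bins by GFP to DsRed ratio, PSI derived from sequencing read proportions per bin multiplied by bin number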
- Measurement parameters: c terminus: a fixed tail appended
Here, each record is paired with measured protein stability index data.
Output: the number by itself.

These recorded examples may help you get a feel for the data.
>  <Variant key>
L20V

>  <protein stability index>
2.19

$$$$
>  <Variant key>
N5Y

>  <protein stability index>
2.38

$$$$
>  <Variant key>
L20K

>  <protein stability index>
3.53

$$$$
>  <Variant key>
L23E

>  <protein stability index>
2.96

$$$$
>  <Variant key>
N5T

>  <protein stability index>
1.65

$$$$
>  <Variant key>
T2D

>  <protein stability index>
2.12

$$$$
>  <Variant key>
V3S

>  <protein stability index>
2.21

$$$$

Turning to the following variant.
*Q* Any idea what its protein stability index is? The variant is T13L
*A* 2.14
